Target: PI3Kdelta (Homo sapiens)
Sequence (O00329 whole entry, species assumed): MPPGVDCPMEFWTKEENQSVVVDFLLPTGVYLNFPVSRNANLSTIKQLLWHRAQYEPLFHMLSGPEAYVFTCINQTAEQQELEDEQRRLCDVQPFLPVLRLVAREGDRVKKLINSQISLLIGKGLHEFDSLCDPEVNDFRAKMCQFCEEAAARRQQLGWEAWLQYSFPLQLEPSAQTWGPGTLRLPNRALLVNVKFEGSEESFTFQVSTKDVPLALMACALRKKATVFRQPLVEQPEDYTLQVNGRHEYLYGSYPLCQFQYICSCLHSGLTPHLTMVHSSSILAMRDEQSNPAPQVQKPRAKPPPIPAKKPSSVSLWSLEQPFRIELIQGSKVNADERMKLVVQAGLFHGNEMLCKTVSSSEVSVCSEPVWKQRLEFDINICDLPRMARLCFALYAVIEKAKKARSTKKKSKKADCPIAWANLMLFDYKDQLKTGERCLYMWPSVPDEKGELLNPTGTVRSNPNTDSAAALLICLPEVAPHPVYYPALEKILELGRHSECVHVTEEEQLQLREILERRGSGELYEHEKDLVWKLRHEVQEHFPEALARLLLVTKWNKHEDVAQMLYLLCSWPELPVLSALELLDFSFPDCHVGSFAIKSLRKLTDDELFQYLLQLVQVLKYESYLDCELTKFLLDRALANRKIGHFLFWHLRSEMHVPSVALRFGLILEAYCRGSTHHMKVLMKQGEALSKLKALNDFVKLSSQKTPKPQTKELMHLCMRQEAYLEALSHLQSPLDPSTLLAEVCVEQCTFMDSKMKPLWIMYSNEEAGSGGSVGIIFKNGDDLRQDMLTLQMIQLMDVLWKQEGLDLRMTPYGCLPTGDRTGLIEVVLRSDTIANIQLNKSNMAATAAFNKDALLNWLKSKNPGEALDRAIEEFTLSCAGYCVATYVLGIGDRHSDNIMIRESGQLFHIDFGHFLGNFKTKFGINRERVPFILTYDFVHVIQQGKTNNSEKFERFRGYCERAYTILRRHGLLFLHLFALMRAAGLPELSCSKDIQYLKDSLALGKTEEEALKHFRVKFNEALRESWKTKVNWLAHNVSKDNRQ
Sequence (P27986 whole entry partner, species assumed): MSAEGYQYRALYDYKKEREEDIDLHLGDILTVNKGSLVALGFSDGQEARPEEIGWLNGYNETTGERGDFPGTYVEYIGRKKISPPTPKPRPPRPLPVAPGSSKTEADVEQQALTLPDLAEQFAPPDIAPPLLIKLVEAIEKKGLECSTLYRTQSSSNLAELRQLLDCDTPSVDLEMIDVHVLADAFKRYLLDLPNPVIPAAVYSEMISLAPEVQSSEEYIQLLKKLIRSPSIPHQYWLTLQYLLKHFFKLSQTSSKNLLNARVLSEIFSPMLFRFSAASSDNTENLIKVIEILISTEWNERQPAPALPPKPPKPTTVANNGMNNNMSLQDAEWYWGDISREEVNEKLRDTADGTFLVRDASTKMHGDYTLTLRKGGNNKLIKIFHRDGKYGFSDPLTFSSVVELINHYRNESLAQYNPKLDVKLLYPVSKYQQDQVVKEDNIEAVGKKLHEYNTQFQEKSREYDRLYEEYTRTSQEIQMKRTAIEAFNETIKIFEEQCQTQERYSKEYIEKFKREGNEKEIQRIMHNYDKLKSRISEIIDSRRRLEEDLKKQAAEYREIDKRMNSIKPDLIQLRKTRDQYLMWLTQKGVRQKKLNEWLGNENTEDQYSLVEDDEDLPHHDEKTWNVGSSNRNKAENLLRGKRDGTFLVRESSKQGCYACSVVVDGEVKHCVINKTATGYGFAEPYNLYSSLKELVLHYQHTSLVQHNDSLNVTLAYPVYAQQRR
Test: PI3Kdelta biochemical assay
Conditions: biochemical assays
assay readout: IC50 (nM)

C[C@H]1Cc2ccccc2N1C(=O)Cc1nc(N2CCOCC2)cc(=O)[nH]1 [Compound (I)]: 465

* * *

Biological target: VPS34 (Homo sapiens, UniProt Q8NEB9)
Sequence (Q8NEB9 whole entry, species assumed): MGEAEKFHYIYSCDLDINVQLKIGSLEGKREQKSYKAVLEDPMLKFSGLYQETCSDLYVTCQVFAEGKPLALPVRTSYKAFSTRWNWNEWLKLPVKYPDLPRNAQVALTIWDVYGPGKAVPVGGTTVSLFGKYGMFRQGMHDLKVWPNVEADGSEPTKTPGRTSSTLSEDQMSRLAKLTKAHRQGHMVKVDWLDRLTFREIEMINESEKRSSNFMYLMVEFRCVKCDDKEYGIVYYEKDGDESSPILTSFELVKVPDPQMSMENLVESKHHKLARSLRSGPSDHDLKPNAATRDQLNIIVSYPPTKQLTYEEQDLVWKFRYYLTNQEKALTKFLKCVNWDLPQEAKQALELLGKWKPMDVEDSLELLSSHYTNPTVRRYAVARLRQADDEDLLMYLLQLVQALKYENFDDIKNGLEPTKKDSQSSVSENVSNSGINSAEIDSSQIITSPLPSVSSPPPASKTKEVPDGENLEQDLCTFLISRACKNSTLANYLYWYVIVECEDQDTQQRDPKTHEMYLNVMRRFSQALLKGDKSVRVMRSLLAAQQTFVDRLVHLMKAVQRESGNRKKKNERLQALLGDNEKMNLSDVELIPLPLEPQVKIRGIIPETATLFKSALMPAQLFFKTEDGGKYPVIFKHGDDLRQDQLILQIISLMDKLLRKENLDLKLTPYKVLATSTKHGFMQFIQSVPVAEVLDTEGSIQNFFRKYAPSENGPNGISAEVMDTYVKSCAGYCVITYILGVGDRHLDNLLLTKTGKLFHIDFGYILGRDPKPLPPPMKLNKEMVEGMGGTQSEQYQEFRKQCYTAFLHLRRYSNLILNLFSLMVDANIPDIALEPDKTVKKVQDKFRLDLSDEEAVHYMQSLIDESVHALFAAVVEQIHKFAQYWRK
Test: Functional VPS34 cellular assay
assay readout: IC50

C[C@H]1Cc2ccccc2N1C(=O)Cc1nc(N2CCOCC2)cc(=O)[nH]1 [Compound (I)]: > 10 µM

* * *

Target: UniProt P42338
Sequence (P42338 whole entry, species assumed): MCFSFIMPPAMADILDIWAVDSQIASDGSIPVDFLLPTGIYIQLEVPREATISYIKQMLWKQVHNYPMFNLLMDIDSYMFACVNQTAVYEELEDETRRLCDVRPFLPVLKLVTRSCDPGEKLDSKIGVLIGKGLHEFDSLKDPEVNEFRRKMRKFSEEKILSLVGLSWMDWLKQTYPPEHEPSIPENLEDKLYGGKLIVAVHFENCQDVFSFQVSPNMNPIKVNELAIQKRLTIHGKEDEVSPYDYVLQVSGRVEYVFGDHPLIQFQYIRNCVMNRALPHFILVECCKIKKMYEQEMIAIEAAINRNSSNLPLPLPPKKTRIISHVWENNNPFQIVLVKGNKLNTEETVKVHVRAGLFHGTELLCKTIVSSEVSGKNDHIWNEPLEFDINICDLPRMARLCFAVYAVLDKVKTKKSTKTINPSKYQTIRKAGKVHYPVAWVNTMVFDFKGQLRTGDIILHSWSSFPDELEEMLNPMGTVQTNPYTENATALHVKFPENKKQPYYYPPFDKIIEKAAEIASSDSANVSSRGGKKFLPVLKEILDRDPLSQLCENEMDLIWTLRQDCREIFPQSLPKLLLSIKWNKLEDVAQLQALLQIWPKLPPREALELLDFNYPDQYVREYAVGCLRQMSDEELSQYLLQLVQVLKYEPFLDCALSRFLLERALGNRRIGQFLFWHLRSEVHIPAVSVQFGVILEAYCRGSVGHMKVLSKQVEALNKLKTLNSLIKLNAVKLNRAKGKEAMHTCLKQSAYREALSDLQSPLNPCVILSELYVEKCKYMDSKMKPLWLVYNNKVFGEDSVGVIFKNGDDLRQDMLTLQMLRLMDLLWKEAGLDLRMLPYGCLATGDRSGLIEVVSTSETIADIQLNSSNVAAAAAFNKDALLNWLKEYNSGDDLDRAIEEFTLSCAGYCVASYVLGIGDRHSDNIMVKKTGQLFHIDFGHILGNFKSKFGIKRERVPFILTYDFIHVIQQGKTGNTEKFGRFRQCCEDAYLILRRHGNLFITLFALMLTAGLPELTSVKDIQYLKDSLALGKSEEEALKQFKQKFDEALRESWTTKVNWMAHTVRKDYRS
Sequence (P26450 whole entry partner, species assumed): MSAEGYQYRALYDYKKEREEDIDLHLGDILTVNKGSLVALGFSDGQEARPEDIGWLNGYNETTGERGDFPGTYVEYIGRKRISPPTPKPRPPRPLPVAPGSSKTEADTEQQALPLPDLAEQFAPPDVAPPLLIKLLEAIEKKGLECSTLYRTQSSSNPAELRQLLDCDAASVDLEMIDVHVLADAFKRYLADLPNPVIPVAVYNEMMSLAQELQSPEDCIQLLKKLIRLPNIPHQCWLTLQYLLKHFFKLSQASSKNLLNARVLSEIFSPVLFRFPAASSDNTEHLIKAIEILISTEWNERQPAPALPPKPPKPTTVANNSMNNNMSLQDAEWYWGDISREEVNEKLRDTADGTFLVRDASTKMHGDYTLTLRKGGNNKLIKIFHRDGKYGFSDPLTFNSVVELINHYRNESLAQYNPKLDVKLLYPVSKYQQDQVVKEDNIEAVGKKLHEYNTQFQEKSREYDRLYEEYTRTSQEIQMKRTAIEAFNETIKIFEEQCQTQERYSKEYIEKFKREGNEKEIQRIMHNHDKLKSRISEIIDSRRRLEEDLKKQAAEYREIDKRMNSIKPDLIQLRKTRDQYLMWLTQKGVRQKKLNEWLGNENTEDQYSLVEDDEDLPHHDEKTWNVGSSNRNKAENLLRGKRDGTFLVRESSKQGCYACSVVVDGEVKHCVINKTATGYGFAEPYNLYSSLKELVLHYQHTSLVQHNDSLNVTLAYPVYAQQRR
Test: Inhibition of AKT phosphorylation (pAkt-S473) in MEF-3T3-myr p110β mouse fibroblasts
Type: cell-based
Conditions: pAkt-S473, MEF-3T3-myr p110β; read-out: IC50 on PI3Kβ in the PI3Kβ-dependent cell line
assay readout: IC50 (nM)

C[C@H]1Cc2ccccc2N1C(=O)Cc1nc(N2CCOCC2)cc(=O)[nH]1: 32
